List of kobs values.
Test system: Epac1 (Homo sapiens, UniProt O95398)
Construct: made in house
Sequence (O95398 192-923): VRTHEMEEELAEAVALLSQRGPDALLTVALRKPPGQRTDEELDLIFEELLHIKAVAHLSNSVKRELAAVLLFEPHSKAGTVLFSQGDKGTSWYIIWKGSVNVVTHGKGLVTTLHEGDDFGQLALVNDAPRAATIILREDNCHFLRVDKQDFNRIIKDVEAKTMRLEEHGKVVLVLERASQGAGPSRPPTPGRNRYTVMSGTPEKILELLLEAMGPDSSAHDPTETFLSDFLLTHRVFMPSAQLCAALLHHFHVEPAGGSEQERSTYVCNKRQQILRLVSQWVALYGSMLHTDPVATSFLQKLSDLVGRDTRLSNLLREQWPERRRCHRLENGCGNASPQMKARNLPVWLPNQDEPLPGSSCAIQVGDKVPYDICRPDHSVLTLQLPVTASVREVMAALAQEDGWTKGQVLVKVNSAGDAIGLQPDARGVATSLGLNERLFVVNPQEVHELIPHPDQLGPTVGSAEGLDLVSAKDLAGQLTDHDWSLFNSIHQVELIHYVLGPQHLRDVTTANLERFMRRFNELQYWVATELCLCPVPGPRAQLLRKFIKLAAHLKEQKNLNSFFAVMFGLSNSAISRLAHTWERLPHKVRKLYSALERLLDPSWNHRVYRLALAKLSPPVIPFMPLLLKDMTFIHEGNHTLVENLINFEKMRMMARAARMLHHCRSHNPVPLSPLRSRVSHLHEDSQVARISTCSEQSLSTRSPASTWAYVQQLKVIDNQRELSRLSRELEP
Measurement protocol: Epac activation assay, Epac1
Format: biochemical
Condition description: 0.5 μM compound

{"Molecule": "Nc1ncnc2c1nc(SCc1ccccc1)n2[C@@H]1O[C@@H]2CO[P@](O)(=S)O[C@H]2[C@H]1O [S-220, Sp-8-BnT-cAMPS]", "Test system": "Epac1 (Homo sapiens, UniProt O95398)", "kobs [s⁻¹]": "2.2e-05"}
{"Molecule": "COC1C2OP(=O)(O)OCC2OC1n1c(Sc2ccc(Cl)cc2)nc2c(N)ncnc21 [D-007, 8-pCPT-2′-O-Me-cAMP, reference compound]", "Test system": "Epac1 (Homo sapiens, UniProt O95398)", "kobs [s⁻¹]": 0.000822}
{"Molecule": "Nc1ncnc2c1ncn2[C@@H]1O[C@@H]2COP(=O)(O)O[C@H]2[C@H]1O [cAMP, reference compound]", "Test system": "Epac1 (Homo sapiens, UniProt O95398)", "kobs [s⁻¹]": "3.8e-05"}
{"Molecule": "Cc1ccc(CSc2nc3c(N)ncnc3n2[C@@H]2O[C@@H]3CO[P@](O)(=S)O[C@H]3[C@H]2O)cc1 [S-230, Sp-8-pMeBnT-cAMPS]", "Test system": "Epac1 (Homo sapiens, UniProt O95398)", "kobs [s⁻¹]": "1e-05"}

* * *

List of Rel. kmax values.
Test system: Epac2^Δ280 (Mus musculus, UniProt Q9EQZ6)
Construct: made in house
Sequence (Q9EQZ6 281-993 isoform Q9EQZ6-3): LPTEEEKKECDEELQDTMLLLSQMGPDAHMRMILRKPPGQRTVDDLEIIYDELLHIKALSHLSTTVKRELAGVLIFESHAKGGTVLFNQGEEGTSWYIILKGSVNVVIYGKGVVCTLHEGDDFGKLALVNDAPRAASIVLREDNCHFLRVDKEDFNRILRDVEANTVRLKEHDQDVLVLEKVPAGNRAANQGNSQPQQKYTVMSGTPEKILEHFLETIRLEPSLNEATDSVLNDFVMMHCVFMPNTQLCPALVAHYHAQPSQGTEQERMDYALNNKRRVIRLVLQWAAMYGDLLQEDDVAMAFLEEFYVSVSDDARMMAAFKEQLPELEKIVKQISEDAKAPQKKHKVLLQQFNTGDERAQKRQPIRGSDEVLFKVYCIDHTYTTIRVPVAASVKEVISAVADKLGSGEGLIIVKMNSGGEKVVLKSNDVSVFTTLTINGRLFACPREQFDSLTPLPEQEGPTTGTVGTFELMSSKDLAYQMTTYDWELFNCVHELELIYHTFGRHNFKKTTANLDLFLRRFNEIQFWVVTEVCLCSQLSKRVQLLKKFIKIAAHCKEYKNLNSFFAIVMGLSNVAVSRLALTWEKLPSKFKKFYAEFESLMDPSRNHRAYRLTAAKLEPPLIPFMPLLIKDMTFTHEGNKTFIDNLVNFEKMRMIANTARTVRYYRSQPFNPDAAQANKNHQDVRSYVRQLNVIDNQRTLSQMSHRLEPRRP
Measurement protocol: Epac activation assay (Rap1B•mGDP fluorescence nucleotide exchange), Epac2^Δ280
Assay type: biochemical
Condition description: Epac2^Δ280; maximal activity relative to cAMP

{"Compound": "CNc1nc2c(N)ncnc2n1[C@@H]1O[C@@H]2CO[P@](O)(=S)O[C@H]2[C@H]1F", "Rel. kmax": 3.9}
{"Compound": "COc1ccc(Sc2nc3c(N)ncnc3n2[C@@H]2O[C@@H]3COP(=O)(O)OC3[C@@H]2OC)cc1 (stereo partly drawn)", "Rel. kmax": 0.5}
{"Compound": "Nc1ncnc2c1nc(Cl)n2[C@@H]1O[C@@H]2CO[P@](O)(=S)O[C@H]2[C@H]1Cl", "Rel. kmax": 0.5}
{"Compound": "Nc1ncnc2c1ncn2[C@@H]1O[C@@H]2COP(=O)(O)O[C@H]2[C@H]1F", "Rel. kmax": 1.0}
{"Compound": "CCCO[C@@H]1[C@@H]2OP(=O)(O)OC[C@H]2O[C@H]1n1cnc2c(N)ncnc21", "Rel. kmax": 0.5}
{"Compound": "CO[C@@H]1[C@@H]2O[P@@](O)(=S)OC[C@H]2O[C@H]1n1c(Sc2ccc(O)cc2)nc2c(N)ncnc21", "Rel. kmax": 1.4}
{"Compound": "Nc1ncnc2c1nc(Cl)n2[C@@H]1O[C@@H]2COP(=O)(O)O[C@H]2[C@H]1Cl", "Rel. kmax": 0.7}
{"Compound": "C[C@H](O)CNc1nc2c(N)ncnc2n1[C@@H]1O[C@@H]2COP(=O)(O)O[C@H]2[C@H]1O [L-012, 8-(S-2-OHPrA)-cAMP]", "Rel. kmax": 0.5}
{"Compound": "CC(C)(C)c1ccc(CSc2nc3c(N)ncnc3n2[C@@H]2O[C@@H]3CO[P@](O)(=S)O[C@H]3[C@H]2O)cc1", "Rel. kmax": 5.0}
{"Compound": "Nc1ncnc2c1nc(NCCCCO)n2[C@@H]1O[C@@H]2COP(=O)(O)O[C@H]2[C@H]1O", "Rel. kmax": 1.6}
{"Compound": "Nc1ncnc2c1nc(Br)n2[C@H]1C[C@@H]2O[P@@](O)(=S)OC[C@H]2O1", "Rel. kmax": 0.8}
{"Compound": "Nc1ncnc2c1nc(SCc1ccccc1)n2[C@@H]1O[C@@H]2COP(=O)(O)O[C@H]2[C@H]1F", "Rel. kmax": 1.6}

* * *

Test system: Epac2^Δ280 (Mus musculus, UniProt Q9EQZ6)
Construct: made in house
Measurement protocol: Epac activation assay (Rap1B•mGDP fluorescence nucleotide exchange), Epac2^Δ280
Assay type: biochemical
Condition description: Epac2^Δ280
Doc: threshold 3 µM (exclusive). Items with AC50 beneath it return Condition met; others return Condition not met.

{"Compound": "Nc1ncnc2c1nc(N1CCCC1)n2[C@@H]1O[C@@H]2COP(=O)(O)O[C@H]2[C@H]1O", "Test system": "Epac2^Δ280 (Mus musculus, UniProt Q9EQZ6)", "Class label": "Condition not met"}
{"Compound": "O=P1(O)OCC2OC(n3cnc4c(NCc5ccccc5)ncnc43)C(O)C2O1 (stereo not shown)", "Test system": "Epac2^Δ280 (Mus musculus, UniProt Q9EQZ6)", "Class label": "Condition met"}
{"Compound": "Nc1ncnc2c1nc(Cl)n2[C@@H]1O[C@@H]2CO[P@](O)(=S)O[C@H]2[C@H]1Cl", "Test system": "Epac2^Δ280 (Mus musculus, UniProt Q9EQZ6)", "Class label": "Condition not met"}
{"Compound": "O[C@@H]1[C@@H]2OP(O)(=S)OC[C@H]2O[C@H]1n1cnc2cc(Cl)c(Cl)cc21 (stereo partly shown)", "Test system": "Epac2^Δ280 (Mus musculus, UniProt Q9EQZ6)", "Class label": "Condition met"}
{"Compound": "Nc1ncnc2c1nc(NCCO)n2[C@@H]1O[C@@H]2COP(=O)(O)O[C@H]2[C@H]1O", "Test system": "Epac2^Δ280 (Mus musculus, UniProt Q9EQZ6)", "Class label": "Condition met"}
{"Compound": "Nc1ncnc2c1nc(SCc1cccc([N+](=O)[O-])c1)n2[C@@H]1O[C@@H]2CO[P@](O)(=S)O[C@H]2[C@H]1O", "Test system": "Epac2^Δ280 (Mus musculus, UniProt Q9EQZ6)", "Class label": "Condition met"}
{"Compound": "Nc1ncnc2c1nc(Br)n2[C@@H]1O[C@@H]2CO[P@](O)(=S)O[C@H]2[C@H]1F", "Test system": "Epac2^Δ280 (Mus musculus, UniProt Q9EQZ6)", "Class label": "Condition not met"}
{"Compound": "COc1ccc(CSc2nc3c(N)ncnc3n2[C@@H]2O[C@@H]3CO[P@](O)(=S)O[C@H]3[C@H]2O)cc1", "Test system": "Epac2^Δ280 (Mus musculus, UniProt Q9EQZ6)", "Class label": "Condition met"}
{"Compound": "COc1nc2c(N)ncnc2n1[C@@H]1O[C@@H]2COP(=O)(O)O[C@H]2[C@H]1O", "Test system": "Epac2^Δ280 (Mus musculus, UniProt Q9EQZ6)", "Class label": "Condition met"}
{"Compound": "Nc1ncnc2c1ncn2C1OC2COP(O)(=S)OC2C1O (stereo not shown)", "Test system": "Epac2^Δ280 (Mus musculus, UniProt Q9EQZ6)", "Class label": "Condition met"}
{"Compound": "CNc1nc2c(N)ncnc2n1[C@@H]1O[C@@H]2CO[P@](O)(=S)O[C@H]2[C@H]1Cl", "Test system": "Epac2^Δ280 (Mus musculus, UniProt Q9EQZ6)", "Class label": "Condition not met"}
{"Compound": "CO[C@H]1C2OP(=O)(O)OC[C@H]2O[C@H]1n1cnc2c(N)ncnc21 (stereo partly shown)", "Test system": "Epac2^Δ280 (Mus musculus, UniProt Q9EQZ6)", "Class label": "Condition not met"}
{"Compound": "O=C(Nc1ncnc2c1ncn2[C@@H]1O[C@@H]2COP(=O)(O)O[C@H]2[C@H]1O)c1ccccc1", "Test system": "Epac2^Δ280 (Mus musculus, UniProt Q9EQZ6)", "Class label": "Condition met"}
{"Compound": "CNc1nc2c(N)ncnc2n1[C@H]1C[C@@H]2O[P@@](O)(=S)OC[C@H]2O1", "Test system": "Epac2^Δ280 (Mus musculus, UniProt Q9EQZ6)", "Class label": "Condition not met"}
{"Compound": "CC(C)Nc1nc2c(N)ncnc2n1[C@@H]1O[C@@H]2CO[P@](O)(=S)O[C@H]2[C@H]1O", "Test system": "Epac2^Δ280 (Mus musculus, UniProt Q9EQZ6)", "Class label": "Condition not met"}
{"Compound": "CSc1nc2c(N)ncnc2n1[C@@H]1O[C@@H]2CO[P@](O)(=S)O[C@H]2[C@H]1F", "Test system": "Epac2^Δ280 (Mus musculus, UniProt Q9EQZ6)", "Class label": "Condition not met"}
